molecular target: GlcNAc(a1-6)Gal(b1-4)GlcNAc; assay: glycan array binding signal (z-score within array); higher = stronger binding; conditions: glycan notation: IUPAC condensed, linker removed
The entries come from a sample that favours the strongest signals as a whole.
parameter: glycan array binding signal (z-score)
Reply: number alone, nothing else.

Q. Tell me the measured glycan array binding signal (z-score) of CD72 ectodomain (Homo sapiens), P21854 (protein) RYLQVSQQLQQTNRVLEVTNSSLRQQLRLKITQLGQSAEDLQGSRRELAQSQEALQVEQRAHQAAEGQLQACQADRQKTKETLQSEEQQRRALEQKLSNMENRLKPFFTCGSADTCCPSGWIMHQKSCFYISLTSKNWQESQKQCETLSSKLATFSEIYPQSHSYYFLNSLLPNGGSGNSYWTGLSSNKDWKLTDDTQRTRTYAQSSKCNKVHKTWSWWTLESESCRSSLPYICEMTAFRFPD , please.
A. 4.24
